Where do the numbers come from? From ChEMBL document CHEMBL5120778.

# subject-of-test: Potassium voltage-gated channel subfamily A member 3 (Homo sapiens)
# Sequence (P22001 whole entry): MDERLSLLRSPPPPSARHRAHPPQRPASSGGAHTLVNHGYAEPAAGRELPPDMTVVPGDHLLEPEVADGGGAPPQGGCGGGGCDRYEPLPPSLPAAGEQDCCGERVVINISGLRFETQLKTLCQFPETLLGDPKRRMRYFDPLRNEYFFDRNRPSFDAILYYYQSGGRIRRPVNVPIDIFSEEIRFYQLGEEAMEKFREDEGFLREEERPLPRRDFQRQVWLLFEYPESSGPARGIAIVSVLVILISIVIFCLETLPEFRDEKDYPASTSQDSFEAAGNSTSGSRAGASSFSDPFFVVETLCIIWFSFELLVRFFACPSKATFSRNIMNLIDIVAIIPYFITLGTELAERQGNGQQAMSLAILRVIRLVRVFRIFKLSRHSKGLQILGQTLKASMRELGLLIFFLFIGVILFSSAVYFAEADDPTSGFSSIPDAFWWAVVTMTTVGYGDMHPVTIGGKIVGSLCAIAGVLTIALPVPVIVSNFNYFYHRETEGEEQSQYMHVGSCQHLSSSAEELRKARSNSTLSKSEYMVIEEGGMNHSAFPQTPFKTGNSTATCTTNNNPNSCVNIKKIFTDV
# assay-method-text: Inhibition of human Kv1.3 expressed in HEK293 cells assessed as inhibition of tetracyclin induced current at 30 uM at holding potential of -80 mV by patch clamp method relative to control
# Type: cell-based
Lab note: anything with inhibition at or over 90% counts as yes (1); the rest go in no (0).

smiles-string	assigned-category
CC(=O)O[C@@H]1[C@H](C)/C=C/C(C)(C)C(=O)C[C@@H](O)/C(C)=C/[C@H]2[C@@H](OC(=O)c3ccccc3)[C@H](C)C[C@]12OC(C)=O	yes (1)
CC(=O)O[C@@H]1C[C@@H](OC(C)=O)C(C)(C)[C@H](O)/C=C(\C)[C@H](OC(C)=O)[C@@]2(OC(C)=O)C[C@H](C)[C@H](OC(=O)c3ccccc3)[C@@H]2/C=C/1C	yes (1)
CC(=O)O[C@@H]1CC(=O)C(C)(C)/C=C/[C@@H](C)[C@@H](O)[C@@]2(OC(C)=O)C[C@H](C)[C@H](OC(=O)c3ccccc3)[C@@H]2/C=C/1C	no (0)
CC(=O)O[C@@H]1C[C@@H](OC(C)=O)C(C)(C)[C@@H](O)/C=C(\C)C(=O)[C@@]2(OC(C)=O)C[C@H](C)[C@H](OC(=O)c3ccccc3)[C@@H]2/C=C/1C	yes (1)

Hi, just wondering whether CC(=O)O[C@@H]1[C@@H](C)/C=C/C(C)(C)C(=O)C[C@@H](OC(C)=O)/C(CO)=C/[C@H]2[C@@H](OC(=O)c3ccccc3)[C@H](C)C[C@]12OC(C)=O shows inhibition of 90% or higher.
yes (1)
